src = patent US11236084B2

# system: recombinant human NF-kappaB-inducing kinase (NIK/MAP3K14) (Homo sapiens, UniProt Q99558)
# Sequence (Q99558 whole entry): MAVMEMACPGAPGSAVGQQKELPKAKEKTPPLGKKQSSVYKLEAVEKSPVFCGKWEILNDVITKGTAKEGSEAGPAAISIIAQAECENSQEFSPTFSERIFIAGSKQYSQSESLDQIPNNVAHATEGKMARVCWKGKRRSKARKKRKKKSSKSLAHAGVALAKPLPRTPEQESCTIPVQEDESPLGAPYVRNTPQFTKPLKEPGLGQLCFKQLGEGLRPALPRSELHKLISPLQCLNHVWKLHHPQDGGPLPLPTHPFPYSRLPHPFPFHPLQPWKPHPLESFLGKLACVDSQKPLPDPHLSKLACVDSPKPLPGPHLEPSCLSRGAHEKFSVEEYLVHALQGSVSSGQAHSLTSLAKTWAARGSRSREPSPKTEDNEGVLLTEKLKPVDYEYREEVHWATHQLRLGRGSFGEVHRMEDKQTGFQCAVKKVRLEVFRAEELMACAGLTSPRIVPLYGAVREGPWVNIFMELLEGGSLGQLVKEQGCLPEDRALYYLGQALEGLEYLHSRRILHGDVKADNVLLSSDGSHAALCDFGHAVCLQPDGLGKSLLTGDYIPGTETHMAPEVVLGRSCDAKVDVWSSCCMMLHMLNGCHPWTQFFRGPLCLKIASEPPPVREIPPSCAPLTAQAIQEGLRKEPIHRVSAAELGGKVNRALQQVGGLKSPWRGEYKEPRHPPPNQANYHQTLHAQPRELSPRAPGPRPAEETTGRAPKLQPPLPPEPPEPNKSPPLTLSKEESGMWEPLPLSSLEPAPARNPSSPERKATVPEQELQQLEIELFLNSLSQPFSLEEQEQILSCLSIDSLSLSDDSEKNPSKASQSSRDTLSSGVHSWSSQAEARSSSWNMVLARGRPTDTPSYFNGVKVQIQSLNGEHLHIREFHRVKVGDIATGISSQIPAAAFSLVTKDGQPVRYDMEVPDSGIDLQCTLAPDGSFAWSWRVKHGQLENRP
# procedure.text: Biological Assay B: inhibition of auto-phosphorylation of recombinant human NIK/MAP3K14 (AlphaScreen), performed at 2 locations
# Assay type: biochemical
# test.settings: location 1; AlphaScreen auto-phosphorylation; averaged values; read-out: Assay B location 1 IC50
measured.quantity: pIC50
On this scale, pIC50 is minus log10 of a concentration expressed in M (mol/L).

Look up pIC50 for this compound: COCCN1CCN(c2cc(OC)c(Nc3nccc(-c4cnc5c(c4)C(C)(CO)CN5)n3)cc2Cl)CC1 (stereo not shown)
8.41

Item: CC1(CO)CNc2ncc(-c3ccnc(Nc4cc(F)c(N5CCOCC5)cc4Cl)n3)cc21 (single isomer, unassigned) [Compound 263]
6.89

Also COc1cc(N2CCC(OC)CC2)c(Cl)cc1Nc1nccc(-c2cnc3c(c2)C(C)(CO)CN3)n1 (stereo not shown) , if possible.
8.20
